- System: A549 cells
- testMethodNotes: Inhibition of cancer cell growth, MTT assay
- Format: cell-based
- conditionParameters: Homo sapiens; A549 cells, 72 h compound exposure, MTT; read-out: IC50
Some compounds, each annotated with its measured IC50.
metric: IC50

C[C@]12CCC(NC(=O)N3CCOCC3)C[C@@]1(O)CC[C@@H]1[C@@H]2CC[C@]2(C)[C@@H](c3ccc(=O)oc3)CC[C@]12O (some centres unmarked) [Compound C30] ... 20 to 100 nM
C[C@]12CCC(NCCN3CCOCC3)C[C@H]1CC[C@@H]1[C@@H]2CC[C@]2(C)[C@@H](c3ccc(=O)oc3)CC[C@]12O (some centres unmarked) [Compound C18] ... 100 to 1000 nM
C[C@]12CC[C@H](NC(=O)NCCN)C[C@H]1CC[C@@H]1[C@@H]2CC[C@]2(C)[C@@H](c3ccc(=O)oc3)CC[C@]12O [Compound C10] ... < 20 nM
C[C@]12CCC(NCCN3CCCC3)C[C@H]1CC[C@@H]1[C@@H]2CC[C@]2(C)[C@@H](c3ccc(=O)oc3)CC[C@]12O (some centres unmarked) [Compound C27] ... < 20 nM
C[C@]12CCC(N3CCNC(=O)C3)C[C@H]1CC[C@@H]1[C@@H]2CC[C@]2(C)[C@@H](c3ccc(=O)oc3)CC[C@]12O (some centres unmarked) [Compound C19] ... 20 to 100 nM
C[C@]12CC[C@H](NC(=O)N3CCNCC3)C[C@H]1CC[C@@H]1[C@@H]2CC[C@]2(C)[C@@H](c3ccc(=O)oc3)CC[C@]12O [Compound C04] ... < 20 nM
C[C@]12CC[C@@H](NC(=O)CN)C[C@H]1CC[C@@H]1[C@@H]2CC[C@]2(C)[C@@H](c3ccc(=O)oc3)CC[C@]12O [Compound C11] ... 20 to 100 nM
C[C@@H](N)C(=O)N[C@H]1CC[C@@]2(C)[C@H](CC[C@@H]3[C@@H]2CC[C@]2(C)[C@@H](c4ccc(=O)oc4)CC[C@]32O)C1 [Compound C26] ... < 20 nM
C[C@]12CC[C@H](NC(=O)CN)C[C@H]1CC[C@@H]1[C@@H]2CC[C@]2(C)[C@@H](c3ccc(=O)oc3)CC[C@]12O [Compound C12] ... < 20 nM
C[C@]12CC[C@H](NC(=O)N3CCOCC3)C[C@H]1CC[C@@H]1[C@@H]2CC[C@]2(C)[C@@H](c3ccc(=O)oc3)CC[C@]12O [Compound C02] ... < 20 nM
CC(C)[C@@H](N)C(=O)N(C)C1CC[C@@]2(C)[C@H](CC[C@@H]3[C@@H]2CC[C@]2(C)[C@@H](c4ccc(=O)oc4)CC[C@]32O)C1 (some centres unmarked) [Compound C22] ... 20 to 100 nM
